biological target: T1, cTnI quality control product recombinant protein (human, UniProt P19429 1-210, limits assumed); assay: AMC biosensor, antibody on sensor
T1 construct: the assay paragraphs only say cTnI; also called cardiac troponin I; cTnI antigen
T1 sequence (P19429 whole entry): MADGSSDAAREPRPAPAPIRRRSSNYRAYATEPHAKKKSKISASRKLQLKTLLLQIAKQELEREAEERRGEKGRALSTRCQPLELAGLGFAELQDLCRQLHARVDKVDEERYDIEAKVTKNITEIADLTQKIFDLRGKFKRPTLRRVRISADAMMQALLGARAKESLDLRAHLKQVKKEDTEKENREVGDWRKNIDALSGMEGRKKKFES

binder	koff [s⁻¹]
Mutation 1-15 (antibody, V domains shown, CDR-VL3 cell prints 'TQ', read as T/Q) VH: QVQLQQSGTELAKPGASVKFSCKASGYTFTTYWMYWIKQRPGQGLEWIGYLNPSSGHTDYNQRFKDKATLTADKSSSTAYMQLNSLTSEDSAVYYCARKYFGPFGMDYWGQGTSVTVSS VL: EIFLTQSPAIMSASPGEKVTMTCSASTSVSYVHWYQQKSGTSPKRWIYDTSKLASGIPVRFSGSGSGTSYSLTISSMEAEDAATYYCQQWSTQPYTFGGGTKLEIKR	2.1e-05
Mutation 1-24 (antibody, V domains shown) VH: QVQLQQSGTELAKPGASVKFSCKASGYTFSTYWMYWIKQRPGQGLEWIGYINPSTGHTDYNQKFKDKATLTADKSSSTAYMQLNSLTSEDSAVYYCARRYFGPFGMDYWGQGTSVTVSS VL: EIFLTQSPAIMSASPGEKVTMTCSASSTVSYVHWYQQKSGTSPKRWLYDTSKIASGIPVRFSGSGSGTSYSLTISSMEAEDAATYYCQQWSSNPYTFGGGTKLEIKR	0.000173
WT 1-5 (antibody, V domains shown) VH: QVQLQQSGTELAKPGASVKFSCKASDYTFSSYWMYWIKQRPGQGLEWIGYLNPSTGHTEYNQKFKDKATLTADKSSSTAYMQLNSLTSEDSAVYYCARKYWGPFAMDYWGQGTSVTVSS VL: EIFLTQSPAIMSASPGEKVTMTCSASSSVSYAHWYQQKSGTSPKRWIYDSSKIASGIPVRFSGSGSGTSYSLTISSMEAEDAATYYCQNWSTNPYTFGGGTKLEIKR	0.0017

Origin of values: patent US20220033483A1
